# System: CDKL1;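 also: KINOMEscan kinase panel screen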
# condition-description: concentration: 1 μM,replicates: in singlicate; n = 1
Each entry below carries its recorded %Inh.
Give just the numeric value; % need not be written.

Sample answers from the record:
>>> numeric_result("O=C(NCC1CC1)c1ccc(-c2cc(C(=O)NC3CC3)ccc2F)cc1")
0
>>> numeric_result("CS(=O)c1ccc(-c2coc3ccc(-c4n[nH]c(=O)o4)cc23)cc1 (centres unmarked)")
10

Data point: "O=C(Nc1cccc(Oc2ccc3nccn3n2)c1)Nc1cccc(C(F)(F)F)c1" ; %Inh = 0

GET /value?item= "Cc1cccc(-c2nc(Nc3ccncc3)c3sccc3n2)n1" &field=%Inh returns 22

The recorded %Inh for entry "C[C@@H]1CNc2c(sc3ccc4nc(-c5ccc(O)cc5)ccc4c23)C(=O)N1" equals 15

Entry "CN1CCN(CCNc2nc3cc(Oc4ccc(NC(=O)Nc5cc(C(F)(F)F)ccc5F)cc4)ccc3[nH]2)CC1.Cl.Cl" , %Inh reported as 3
